pIC50: −log10 of the molar value.
Here's a batch of compounds along with measured pIC50 for Cyclin-dependent kinase 5/CDK5 activator 1 (Homo sapiens, UniProt Q00535).

Request: Quick check: pIC50 of `O=C1NC(N[C@@H](CO)CC2CCC2)=N/C1=C\c1ccc2ncsc2c1` ?
Result: < 5.00

Request: Dear colleague, I am looking for the recorded pIC50 of the following compound: `O=C1NC(N[C@H]2CCCOC2)=N/C1=C\c1ccc2ncsc2c1`
Result: 5.23

Request: Return reported pIC50; argument: `CN1CCN(c2ncc(NC3=N/C(=C\c4ccc5ncsc5c4)C(=O)N3)cn2)CC1`
Result: < 5.00

Request: Given the compound NCC(NC1=N/C(=C\c2ccc3ncsc3c2)C(=O)N1)c1ccccc1 (stereo unspecified) , what is its reported pIC50?
Result: 6.03

Request: What pIC50 value was documented for this compound, `Cn1cnc2ccc(/C=C3\N=C(NC4CCCCC4)NC3=O)cc21` ?
Result: < 5.00

Request: Entry `O=C1NC(NC2CC3(CCC3)C2)=N/C1=C\c1ccc2ncsc2c1` has what pIC50?
Result: < 5.00

Request: // lookup pIC50 for `Cn1cc2cc(/C=C3\N=C(NC4CCCCC4)NC3=O)ccc2n1`
Result: < 5.00

Request: I'd like to know its pIC50. The compound in question is CN1CC[C@](C)(NC2=N/C(=C\c3ccc4ncsc4c3)C(=O)N2)C1=O (stereo in doubt)
Result: < 5.00

Request: // query pIC50 value for entry `CC(C)C[C@@H](CO)NC1=N/C(=C\c2ccc3ncsc3c2)C(=O)N1`
Result: < 5.00

Request: I'd like to know its pIC50. The compound in question is O=C1NC(NC2CCCCC(F)(F)C2)=N/C1=C\c1ccc2ncsc2c1 (racemic)
Result: 6.22

Request: Tell me the measured pIC50 of `NC[C@@H](NC1=N/C(=C\c2ccc3ncsc3c2)C(=O)N1)c1ccccc1` , please.
Result: 5.60

Request: # get_value(readout='pIC50', item= `O=C1NC(NC2CCCCCC2)=N/C1=C\c1ccc2c(c1)CCO2` )
Result: < 5.00

Request: Query: pIC50; subject: `CC(=O)N1CCc2ccc(NC3=N/C(=C\c4ccc5ncsc5c4)C(=O)N3)cc21`
Result: < 5.00

Request: I have this compound here, `Cc1ccc(CNC2=N/C(=C\c3ccc4ncsc4c3)C(=O)N2)o1` , and I need its recorded pIC50.
Result: < 5.00

Request: Looking for the measured pIC50 of CC1(C)C2CCC1(C)[C@H](NC1=N/C(=C\c3ccc4ncsc4c3)C(=O)N1)C2 (stereo partly specified) , can you help?
Result: < 5.00

Request: Field request: pIC50 | item: COC(=O)C1(NC2=N/C(=C\c3ccc4ncsc4c3)C(=O)N2)C2CC3CC(C2)CC1C3 (stereo unspecified)
Result: 5.48
